Values were extracted from paper PMC11033320.

- METHOD: MTT cytotoxicity to normal human lung fibroblast Wi-38 cell line
- Type: cell-based
- EXPERIMENTAL_PARAMETERS: Wi-38 normal lung fibroblast cells, mean ± SEM, read-out: percentage of Wi-38 viability
MEASURED_PARAMETER: viability at 72 h, 5 µM (%)
// return numeric value only (unit: %, not printed)

QUERY: Complete the entry with viability at 72 h, 5 µM for O=C(c1nc2ccccc2[nH]1)[C@H]1[C@H](c2ccc(Cl)cc2)C2CSCN2[C@]12C(=O)Nc1ccccc12 (some centres unmarked) [Compound 6b]
RESULT: 49.6

QUERY: Let me know recorded viability at 72 h, 5 µM for O=C(c1nc2ccccc2[nH]1)[C@H]1[C@H](c2cccc(O)c2)C2CSCN2[C@]12C(=O)Nc1ccccc12 (some centres unmarked) [Compound 6h] , thanks.
RESULT: 51

QUERY: Kindly indicate its recorded viability at 72 h, 5 µM. Item: CN(C)c1ccc([C@@H]2C3CSCN3[C@]3(C(=O)Nc4ccccc43)[C@H]2C(=O)c2nc3ccccc3[nH]2)cc1 (some centres unmarked) [Compound 6k]
RESULT: 38.6
